Assay: Measurement of LogP values by HPLC on reversed phase columns (EEC directive 79/831 Annex V.A8)
Type: physicochemical
Conditions: reversed-phase HPLC column; Table 2 (formula XVIIa); method [a]: LC-UV, acidic range, 0.1% formic acid in water and acetonitrile as eluent
Property measured: chromatographic logP

Lab note: measured chromatographic logP of `N#Cc1cncn1CC(=O)C1(c2ccccc2)CC1` was 2.17

---

Assay: Measurement of LogP values by HPLC on reversed phase columns (EEC directive 79/831 Annex V.A8)
Type: physicochemical
Details: reversed-phase HPLC column; Table 1; method [a]: LC-UV, acidic range, 0.1% formic acid in water and acetonitrile as eluent
Method: Measurement of LogP values was performed according to EEC directive 79/831 Annex V.A8 by HPLC (High Performance Liquid Chromatography) on reversed phase columns with the following methods: • ^[a] Log P value is determined by measurement of LC-UV, in an acidic range, with 0.1% formic acid in water and acetonitrile as eluent (linear gradient from 10% acetonitrile to 95% acetonitrile). • ^[b] […]
Property measured: chromatographic logP
One number for each entry.

Reference set, count: 2
N#Cc1cncn1CC(O)(Cc1cccc(F)c1F)c1ccc(Cl)s1 (stereo not drawn) [I-16]: 2.86
N#Cc1cncn1CC(O)(Cc1ccc(F)cc1F)C1(c2ccccc2)CC1 (stereo not drawn) [I-06]: 3.29

Turning now to a further molecule:
The reported value for N#Cc1cncn1CC(O)(Cc1ccccc1)c1ccc(F)cc1F (stereo not drawn) [I-13] in terms of chromatographic logP is 2.68
